This listing pairs molecules with measured pest or weed control at 250 g/ha.
- System: Lolium perenne (LOLPE)
- Procedure Text: Glasshouse assay for herbicidal activity (pre- and post-emergence), percentage phytotoxicity
- Type: in vivo
- Condition Summary: Lolium perenne, pre-emergence, 480 h, PRE-emergence, rate 250 g/ha, visual score 20 DAA (100%=total damage, 0%=no damage); read-out: Pre-emergence herbicidal activity (percentage phytotoxicity) LOLPE PRE
# unit: % | format: bare number

{"Molecule": "COCC(C)(C)NC(=O)CC1CC(=O)C(c2c(C)cc(-c3ncc(Cl)cc3F)cc2C)C1=O (centres unmarked)", "System Tested": "Lolium perenne (LOLPE)", "pest or weed control at 250 g/ha, %": 100}
{"Molecule": "Cc1cc(-c2ncc(C#N)cn2)cc(C)c1C1C(=O)CC(CC(=O)NCc2cccc(Cl)c2)C1=O (centres unmarked)", "System Tested": "Lolium perenne (LOLPE)", "pest or weed control at 250 g/ha, %": 90}
{"Molecule": "Cc1cc(-c2ccc(Br)cn2)cc(C)c1C1C(=O)CC(CC(=O)N2CCOCC2)C1=O (centres unmarked)", "System Tested": "Lolium perenne (LOLPE)", "pest or weed control at 250 g/ha, %": 100}
{"Molecule": "Cc1cc(-c2ncc(C#N)cn2)cc(C)c1C1C(=O)CC(CC(=O)NC(C)(C)C)C1=O (centres unmarked)", "System Tested": "Lolium perenne (LOLPE)", "pest or weed control at 250 g/ha, %": 100}

Task: I have this molecule here, CNC(=O)CC1CC(=O)C(c2c(C)cc(-c3ncc(F)cn3)cc2C)C1=O (centres unmarked) , and I need its recorded pest or weed control at 250 g/ha.
Output: 100

Task: I have this molecule here, CCc1cc(OCC(F)(F)F)cc(C)c1C1C(=O)CC(CC(=O)NCC2CC2)C1=O (centres unmarked) , and I need its recorded pest or weed control at 250 g/ha.
Output: 100

Task: I have this molecule here, C#CCNC(=O)CC1CC(=O)C(c2c(C)cc(-n3cc(Cl)cn3)cc2C)C1=O (centres unmarked) , and I need its recorded pest or weed control at 250 g/ha.
Output: 90

Task: I have this molecule here, Cc1cc(-c2ncc(Br)cn2)cc(C)c1C1C(=O)CC(CC(=O)NC(C)(C)C)C1=O (centres unmarked) , and I need its recorded pest or weed control at 250 g/ha.
Output: 100

###

This listing pairs compounds with measured pest or weed control at 250 g/ha.
- System: Lolium perenne (LOLPE)
- Procedure Text: Glasshouse assay for herbicidal activity (pre- and post-emergence), percentage phytotoxicity
- Type: in vivo
- Condition Summary: Lolium perenne, post-emergence, 360 h, 250 g/ha; post-emergence; 15 DAA; visual assessment (100%=total damage, 0%=no damage); read-out: Post-emergence herbicidal activity (percentage phytotoxicity) LOLPE POST
# unit: % | format: bare number

{"Compound": "Cc1cc(-c2ccc(C#N)cn2)cc(C)c1C1C(=O)CC(CC(=O)NC(C)(C)C)C1=O (stereo not drawn) [Compound B75]", "Measure Unit": "%", "pest or weed control at 250 g/ha": 100}

Task: I have this compound here, Cc1cc(-c2ncc(F)cc2F)cc(C)c1C1C(=O)CC(CC(=O)NCc2ccc(C(F)(F)F)cc2)C1=O (stereo not drawn) [Compound B89] , and I need its recorded pest or weed control at 250 g/ha.
Output: 100

Task: I have this compound here, Cc1cc(-c2ncc(Cl)s2)cc(C)c1C1C(=O)CC(CC(=O)NC(C)(C)C)C1=O (stereo not drawn) [Compound B24] , and I need its recorded pest or weed control at 250 g/ha.
Output: 90

Task: I have this compound here, C=CCNC(=O)CC1CC(=O)C(c2c(C)cc(-c3ncc(F)cn3)cc2C)C1=O (stereo not drawn) [Compound B108] , and I need its recorded pest or weed control at 250 g/ha.
Output: 100

Task: I have this compound here, Cc1cc(-c2ncc(F)cc2F)cc(C)c1C1C(=O)CC(CC(=O)NCc2cccc(C(F)(F)F)c2)C1=O (stereo not drawn) [Compound B88] , and I need its recorded pest or weed control at 250 g/ha.
Output: 100

Task: I have this compound here, Cc1cc(C)c(C2C(=O)CC(CC(=O)NCc3cccc(Br)c3)C2=O)c(C)c1 (stereo not drawn) [Compound B23] , and I need its recorded pest or weed control at 250 g/ha.
Output: 90

Task: I have this compound here, Cc1cc(C)c(C2C(=O)CC(CC(=O)NCc3ccc(Cl)cc3)C2=O)c(C)c1 (stereo not drawn) [Compound B13] , and I need its recorded pest or weed control at 250 g/ha.
Output: 90

Task: I have this compound here, COc1cccc(CNC(=O)CC2CC(=O)C(c3c(C)cc(Br)cc3C)C2=O)c1 (stereo not drawn) [Compound B132] , and I need its recorded pest or weed control at 250 g/ha.
Output: 70
